# Tested on: striatal dopamine
# protocol_summary: MPTP dopamine depletion model (mice, sacrificed 72 h after MPTP)
# Assay type: in vivo, C57BL/6J mice
# condition_summary: Table 3; dose not given
# Degree of protection, % (MPTP dopamine depletion test) per record follows
Give just the numeric value; % need not be written.

>>> recorded_value("CC(=O)Nc1cccc(C(=O)NC(C)(C)C)c1 [CPI1234, N-tert-butyl-3-acetamidobenzamide]")
77

Sample CCC(C)(C)NC(=O)c1ccc(NC(C)=O)cc1 [CPI1233, N-tert-amyl-4-acetamidobenzamide] — what was its Degree of protection, % (MPTP dopamine depletion test)?
40

Sample CC(=O)Nc1ccc(C(=O)NC(C)C)cc1 [CPI1232, N-iso-propyl-4-acetamidobenzamide] — what was its Degree of protection, % (MPTP dopamine depletion test)?
70

Sample CC(C)(C)NC(=O)c1ccc(N)cc1 [CPI1160, N-tert-butyl4-aminobenzamide] — what was its Degree of protection, % (MPTP dopamine depletion test)?
94
